Reported PBM binding z-score values follow for various sequences
# System: PPARg:RXRa 270nM:90nM, anti-RXR (NR concentration 270 nM, RXRa partner concentration 90 nM)
# PROTOCOL_DESCRIPTION: PBM binding z-score (relative to random genomic background probes); higher = stronger binding; sequences stand for … in GC…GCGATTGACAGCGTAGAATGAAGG
Lab note: jot the number down without any unit.

q: Quick one: give measured PBM binding z-score for TCTATTAGATGATTAGGGCAACCGAAACAGCGGA
a: 1.88

----------
Reported PBM binding z-score values follow for various sequences
# Test system: RARg homodimer (NR concentration 270 nM)
# PROTOCOL_DESCRIPTION: PBM binding z-score (relative to random genomic background probes); higher = stronger binding; sequences stand for … in GC…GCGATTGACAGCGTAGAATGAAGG
Lab note: jot the number down without any unit.

SEQUENCE_CONTENT	PBM binding z-score
ATCGAAAGGTTGTGAGGTGAGTATACAGAAAGGC	1.19
TATATAGGGTCAAAGGCCAGAGTACGAATGTCGA	5.07
AGAATGAGGTTATTAAGCTCAGGGAATTGCGGTC	0.334
TCGAATAGGTTAGTCGGGGCATTCAGCCAACATA	0.436

q: Quick one: give measured PBM binding z-score for CCGACTGGGCCATAAGGTTACCATAAGCCAGCCC
a: 0.48

q: Quick one: give measured PBM binding z-score for ACAGACAGGTGATGAAGGTAGCTCAGGCTATCAT
a: 0.295

q: Quick one: give measured PBM binding z-score for ACTATTAGATGAGACGAGGGCAACCGATAGGTTG
a: 1.09

q: Quick one: give measured PBM binding z-score for TCTATTAGTTGATCAGGGCAACCGAAACAGCGGA
a: 0.555

q: Quick one: give measured PBM binding z-score for TCTCGGAGGACACGAAAGGTCAGCGCTCGACATC
a: 6.15

q: Quick one: give measured PBM binding z-score for TCTTGTAGATGAATAGAGGTTAAGAAAGTGCGCT
a: 0.531

q: Quick one: give measured PBM binding z-score for AGAATGAGGTTAAGAACAGGGAAACAGAATACAT
a: 1.4

q: Quick one: give measured PBM binding z-score for AGTCAATGTTCATCTAGGTAACGTAAGATATGCT
a: 0.41

----------
# System: RARa:RXR (NR concentration 270 nM, RXRa partner concentration 90 nM)
# PROTOCOL_DESCRIPTION: PBM binding z-score (relative to random genomic background probes); higher = stronger binding; sequences stand for … in GC…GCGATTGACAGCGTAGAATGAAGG
Please enter True where PBM binding z-score is greater than or equal to 2, and False where it is lower.

Here's what some known entries look like.
SEQUENCE_CONTENT	TARGET_SYSTEM	LABEL
TCTTGTAGATCAGCAGGTTCAGAAAGCTGGCCAA	RARa:RXR (NR concentration 270 nM, RXRa partner concentration 90 nM)	False
CCAGACAGGTGAAATGTAACTCAGTCTGGTACGC	RARa:RXR (NR concentration 270 nM, RXRa partner concentration 90 nM)	False
CAAACTAGGTCACGGAAGGTCAAAGTCGAATGAC	RARa:RXR (NR concentration 270 nM, RXRa partner concentration 90 nM)	True
TCGAGTAGGTTACCAATGGGGCATTCTGCTTTCT	RARa:RXR (NR concentration 270 nM, RXRa partner concentration 90 nM)	False
CGTCAAAATTCAACTAAGGTAACGTAAAGCACGC	RARa:RXR (NR concentration 270 nM, RXRa partner concentration 90 nM)	False

q: Reported PBM binding z-score at or above 2? AGAATGAGGTTATTAAGATCAGGGACTTGCGGTC
a: False

q: Reported PBM binding z-score at or above 2? CAAACTAGCTCACAGAGGTCAAAGTCCGTGCGTA
a: True

q: Reported PBM binding z-score at or above 2? CAAACTGGGTCAAGAGGTCAAAGTCCGCTTCCCG
a: True

q: Reported PBM binding z-score at or above 2? CCGACTGGGGCAGATAGGTTACCATACCATCCGG
a: False

q: Reported PBM binding z-score at or above 2? CCTAGCAGTCCAATCTGGGTCACTCAAGGCTTGA
a: False

q: Reported PBM binding z-score at or above 2? ACAGACAGGTGAGTGTAGGTAACTCAGCTGGACG
a: False

q: Reported PBM binding z-score at or above 2? ATCTCTAGGTAAGACTCAGTTCCGTGAAGAACGC
a: False

q: Reported PBM binding z-score at or above 2? CCTAGTTGGTCAAGGTCGCACACGCTATAGGTAC
a: False

q: Reported PBM binding z-score at or above 2? ATCGAAAGGTCGAGGGTGAGTATACCCACCCGAA
a: True

q: Reported PBM binding z-score at or above 2? CGAACTAGGTCACTGACAGGACAGTGAATAGTAA
a: False

q: Reported PBM binding z-score at or above 2? CCAGACAGGTGAGAAGGTCACTCAGCCTCGATTA
a: True

q: Reported PBM binding z-score at or above 2? CGTTAAAGTTCAACTAAGGTAACGTAAAGCACGC
a: True

q: Reported PBM binding z-score at or above 2? TAGCCTAGGTCAAGGGCCAGTATACCACGCGAAC
a: True

q: Reported PBM binding z-score at or above 2? CCTACTGGGCTATCAGGTCATTGATATCAACGTT
a: False

q: Reported PBM binding z-score at or above 2? TCTTGTAGATCAGCACGTTAAGAAAGCTGGCCAA
a: False

q: Reported PBM binding z-score at or above 2? CCTAGCAGGCCAATGTGGGTCACTCAAGGCTTGA
a: False

q: Reported PBM binding z-score at or above 2? TATACAGGGTCAAAGGCCAGAGAACGAATGTCGA
a: True

q: Reported PBM binding z-score at or above 2? CCTACTGGGCCATTCAGAGGTCTTTGATCATATG
a: False

q: Reported PBM binding z-score at or above 2? CAAACTAGGGCAAAGGTCAAAGTCGAGCCAACCA
a: True

q: Reported PBM binding z-score at or above 2? CCTTACGGGTCAAGGTTATAGCACGGGTGGTACG
a: True

q: Reported PBM binding z-score at or above 2? CCGAGTAGGTTATGGGGCATTGAGGCAACGGTGA
a: False
